- Target: rat FAAH (Rattus norvegicus)
- Construct: made in house; host or cells: E. coli
- Sequence (P97612 whole entry): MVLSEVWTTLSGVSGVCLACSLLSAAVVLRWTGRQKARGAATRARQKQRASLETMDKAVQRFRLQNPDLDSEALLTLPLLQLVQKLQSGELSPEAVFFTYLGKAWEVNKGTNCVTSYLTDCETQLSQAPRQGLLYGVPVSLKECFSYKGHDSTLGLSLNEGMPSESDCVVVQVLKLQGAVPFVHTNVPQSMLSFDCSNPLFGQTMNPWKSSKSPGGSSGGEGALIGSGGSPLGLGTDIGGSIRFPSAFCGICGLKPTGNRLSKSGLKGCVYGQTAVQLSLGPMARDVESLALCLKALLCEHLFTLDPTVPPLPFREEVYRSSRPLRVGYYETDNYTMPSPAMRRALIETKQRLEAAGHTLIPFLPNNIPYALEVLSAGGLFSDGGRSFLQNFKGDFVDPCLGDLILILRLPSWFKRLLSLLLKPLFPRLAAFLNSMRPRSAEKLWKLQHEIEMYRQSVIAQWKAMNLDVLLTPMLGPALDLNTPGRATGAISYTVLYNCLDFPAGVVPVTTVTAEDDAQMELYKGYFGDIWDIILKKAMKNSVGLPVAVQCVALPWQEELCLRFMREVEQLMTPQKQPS
- Experiment Summary: FAAH assay, rat FAAH enzyme inhibition (kinact/Ki)
- Type: biochemical
- Condition Context: oleamide substrate 50 μM, 30° C., read-out: rFAAH kinact/Ki
- Description: The FAAH assay was carried out in 384-well clear polystyrene plates (Evergreen Scientific) in a total volume of 50 μl per well in a manner similar to that described by Mileni et al., Proc. Nat. Acad. Sci. 2008, 105, 12820-12824. All percents are by volume. […] The reactions were incubated at 30° C. and the absorbance at 340 nm was collected over a period of 90 min with readings taken in 30-second intervals using SpectraMax Plus^384 Microplate Spectrophotometer (Molecular Devices, Sunnyvale, Calif.). […]
Give kinact/KI for every item shown.
Give bare numbers, in M⁻¹ s⁻¹.

Here are 5 compounds together with their reported answers.
Test Smiles	Endpoint	Result Number
Cc1noc(NC(=O)N2CCC3(CC2)CC(c2cccc(OCCOc4ccc(Cl)cc4)c2)C3)c1C	kinact/KI	2340
Cc1noc(NC(=O)N2CCC3(CC2)CC(c2nc(-c4ccc(OC(F)(F)F)cc4)cs2)C3)c1C	kinact/KI	756
Cn1nnnc1NC(=O)N1CCC2(CC1)CC(c1cccc(Cl)c1F)C2	kinact/KI	3410
COC1(c2ccc(F)c(Cl)c2)CC2(CCN(C(=O)Nc3onc(C)c3C)CC2)C1	kinact/KI	247
Cc1noc(NC(=O)N2CCC3(CC2)CC(c2cccc(OCCOc4ccccc4)c2)C3)c1C	kinact/KI	1700

Would you be so kind as to report kinact/KI for each listed record?
1. CCc1noc(NC(=O)N2CCC3(CC2)CC(c2cccc(OC(F)(F)F)c2)C3)c1C
2. Cc1noc(NC(=O)N2CCC3(CC2)CC(c2cccc(Oc4ccc(C(F)(F)F)cn4)c2)C3)c1C
3. Cc1ccc(C2CC3(CCN(C(=O)Nc4onc(C)c4C)CC3)C2)cc1C

Reply:
1660
9460
1920
